target: recombinant human integrin αvβ6 (Homo sapiens (Human), UniProt P06756+P18564); assay: Solid phase integrin αvβ6 binding assay; conditions: IC50 presented in four ranges; read-out: αvβ6 Inhibition IC50 (nM) - range
Sequence (P06756 31-889): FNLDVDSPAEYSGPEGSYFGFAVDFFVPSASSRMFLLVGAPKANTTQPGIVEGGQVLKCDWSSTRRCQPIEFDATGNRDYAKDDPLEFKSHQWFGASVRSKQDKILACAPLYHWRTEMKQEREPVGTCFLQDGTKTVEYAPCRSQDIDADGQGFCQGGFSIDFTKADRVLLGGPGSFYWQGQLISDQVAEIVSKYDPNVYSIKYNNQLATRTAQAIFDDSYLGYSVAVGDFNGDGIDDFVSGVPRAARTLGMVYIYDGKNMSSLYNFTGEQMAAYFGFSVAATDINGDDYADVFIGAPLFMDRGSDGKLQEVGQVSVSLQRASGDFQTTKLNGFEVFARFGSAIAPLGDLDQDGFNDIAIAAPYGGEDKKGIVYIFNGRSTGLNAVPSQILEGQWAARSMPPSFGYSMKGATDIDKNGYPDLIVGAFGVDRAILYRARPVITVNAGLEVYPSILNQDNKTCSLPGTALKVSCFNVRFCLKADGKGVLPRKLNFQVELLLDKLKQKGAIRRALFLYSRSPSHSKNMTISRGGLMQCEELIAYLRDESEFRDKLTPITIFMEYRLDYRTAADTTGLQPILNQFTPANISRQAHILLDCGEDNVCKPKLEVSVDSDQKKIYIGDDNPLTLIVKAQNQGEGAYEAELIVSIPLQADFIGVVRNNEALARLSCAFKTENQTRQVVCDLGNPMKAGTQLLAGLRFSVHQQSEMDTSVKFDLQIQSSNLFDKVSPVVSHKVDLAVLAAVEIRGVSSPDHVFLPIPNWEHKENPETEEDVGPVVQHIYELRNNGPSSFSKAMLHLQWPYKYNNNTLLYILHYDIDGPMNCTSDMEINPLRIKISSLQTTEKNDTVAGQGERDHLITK
Sequence (P06756 890-992 partner): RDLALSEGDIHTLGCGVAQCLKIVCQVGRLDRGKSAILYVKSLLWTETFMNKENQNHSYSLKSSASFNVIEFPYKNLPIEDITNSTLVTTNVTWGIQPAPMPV
Sequence (P18564 22-707): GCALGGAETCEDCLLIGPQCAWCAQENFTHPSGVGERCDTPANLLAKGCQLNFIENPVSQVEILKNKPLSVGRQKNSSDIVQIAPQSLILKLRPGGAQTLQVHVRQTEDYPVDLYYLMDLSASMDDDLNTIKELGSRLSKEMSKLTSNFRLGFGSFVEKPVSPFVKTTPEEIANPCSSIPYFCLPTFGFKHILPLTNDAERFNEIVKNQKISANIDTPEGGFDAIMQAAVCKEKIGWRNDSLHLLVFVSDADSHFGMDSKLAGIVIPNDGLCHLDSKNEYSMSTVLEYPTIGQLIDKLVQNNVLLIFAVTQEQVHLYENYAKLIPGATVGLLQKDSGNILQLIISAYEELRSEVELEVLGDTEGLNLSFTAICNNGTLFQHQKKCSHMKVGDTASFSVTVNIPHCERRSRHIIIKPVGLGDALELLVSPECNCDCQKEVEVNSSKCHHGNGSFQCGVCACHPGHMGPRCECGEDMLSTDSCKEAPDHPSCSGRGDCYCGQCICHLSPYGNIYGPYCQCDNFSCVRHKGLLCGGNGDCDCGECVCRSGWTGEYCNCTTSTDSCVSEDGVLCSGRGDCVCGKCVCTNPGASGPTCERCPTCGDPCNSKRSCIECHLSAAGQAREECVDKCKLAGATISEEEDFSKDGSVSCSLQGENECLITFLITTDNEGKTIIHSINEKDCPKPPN
# key: entry, value: IC50
observed-property: IC50

- O=C(O)[C@H](CCN(CCCCc1ccc2c(n1)NCCC2)CC(CO)CO)Nc1ncnc2ccccc12: < 50 nM
- CS(=O)(=O)CCN(CCCCc1ccc2c(n1)NCCC2)CC[C@H](Nc1ccnc(C(F)(F)F)n1)C(=O)O: > 1000 nM
- Cc1ccc(OCCN(CCCCc2ccc3c(n2)NCCC3)CC[C@H](Nc2ncnc3ccccc23)C(=O)O)cn1: < 50 nM
- O=C(O)[C@H](CCN(CCCCc1ccc2c(n1)NCCC2)CCOc1ccccc1)Nc1ncc(C2CC2)cn1: < 50 nM

* * *

Target: recombinant human integrin αvβ6 (Homo sapiens (Human), UniProt P06756+P18564)
Test: Solid phase integrin αvβ6 binding assay
Settings: IC50 presented in four ranges; read-out: αvβ6 Inhibition IC50 (nM) - range
Experimental: Microplates were coated with recombinant human integrin αvβ6 (2 µg/mL) in PBS (100 µL/well 25° C., overnight). The coating solution was removed, washed with wash buffer (0.05% Tween 20; 0.5 mM MnCl2; in 1x TBS). The plate was blocked with 200 µL/well of Block Buffer (1% BSA; 5% sucrose; 0.5 mM MnCl2; in 1x TBS) at 37° C. for 2 h. […] Bound antibody was detected by peroxidase-conjugated streptavidin. The IC50 values for testing compounds were calculated by a four-parameter logistic regression. […]
// reported IC50 per item
observed-property: IC50

- O=C(O)[C@H](CCN(CCCCc1ccc2c(n1)NCCC2)CCC(F)F)Nc1ncnc2ccccc12: < 50 nM
- O=C(O)[C@H](CCN(CCCCc1ccc2c(n1)NCCC2)CCOc1ccccn1)Nc1ncnc2c(Cl)cccc12: < 50 nM
- COCCN(CCCCc1ccc2c(n1)NCCC2)CC[C@H](Nc1ccnc2ccccc12)C(=O)O: > 1000 nM
- COCCN(CCCCc1ccc2c(n1)NCCC2)CC[C@H](Nc1nc(C(F)(F)F)nc2ccccc12)C(=O)O: < 50 nM
- COC[C@@H](F)CN(CCCCc1ccc2c(n1)NCCC2)CC[C@H](Nc1cc(-n2cccn2)ncn1)C(=O)O: > 1000 nM
- COCCN(CCCCc1ccc2c(n1)NCCC2)CC[C@H](Nc1nc(C)nc2ccccc12)C(=O)O: < 50 nM
- O=C(O)[C@H](CCN(CCCCc1ccc2c(n1)NCCC2)CC(F)F)Nc1ncc(Br)cn1: > 1000 nM
- COc1cccc2c(N[C@@H](CCN(CCCF)CCCCc3ccc4c(n3)NCCC4)C(=O)O)ncnc12: < 50 nM
- O=C(O)[C@H](CCN(CCCCc1ccc2c(n1)NCCC2)CCOc1ccccc1)Nc1ncc(C(F)(F)F)cn1: < 50 nM
- COCCN(CCCCc1ccc2c(n1)NCCC2)CC[C@H](Nc1ncnc2c(F)cccc12)C(=O)O: < 50 nM
- Cc1ncccc1OCCN(CCCCc1ccc2c(n1)NCCC2)CC[C@H](Nc1ncnc2cccnc12)C(=O)O: < 50 nM
- CO[C@H](C)CN(CCCCc1ccc2c(n1)NCCC2)CC[C@H](Nc1ccnc(C(F)(F)F)n1)C(=O)O: 250 to 1000 nM
- COC[C@@H](F)CN(CCCCc1ccc2c(n1)NCCC2)CC[C@H](Nc1nc(C)nc2cc(F)ccc12)C(=O)O: < 50 nM
- CS(=O)(=O)CCN(CCCCc1ccc2c(n1)NCCC2)CC[C@H](Nc1ncnc2[nH]ncc12)C(=O)O: 50 to 250 nM
- COCCN(CCCCc1ccc2c(n1)NCCC2)CC[C@H](Nc1ncnc2cc(Cl)ccc12)C(=O)O: 50 to 250 nM

* * *

assay: Unbound plasma concentration in the PET/CT study; type: in vivo; settings: human, 320 mg, Subject D320, 320 mg
observed-property: concentration at 4 h (nM)

• COCCN(CCCCc1ccc2c(n1)NCCC2)CC[C@H](Nc1ncnc2ccccc12)C(=O)O = 33.6

* * *

target: recombinant human integrin αvβ6 (Homo sapiens (Human), UniProt P06756+P18564); test: Solid phase integrin αvβ6 binding assay; conditions: IC50 presented in four ranges; read-out: αvβ6 Inhibition IC50 (nM) - range
Each entry below lists one item and its recorded IC50 value.
observed-property: IC50

- COCCN(CCCCc1ccc2c(n1)NCCC2)CC[C@H](Nc1nc(C)nc2cc(F)ccc12)C(=O)O: < 50 nM
- Cn1ncc2c(N[C@@H](CCN(CCCCc3ccc4c(n3)NCCC4)CC(F)F)C(=O)O)ncnc21: > 1000 nM
- O=C(O)[C@H](CCN(CCCCc1ccc2c(n1)NCCC2)CCOc1ccccc1)Nc1ncc(Br)cn1: < 50 nM
- CO[C@H](C)CN(CCCCc1ccc2c(n1)NCCC2)CC[C@H](Nc1nc(-c2cccnc2)nc2ccccc12)C(=O)O: < 50 nM
- O=C(O)[C@H](CCN(CCCCc1ccc2c(n1)NCCC2)CCOc1ccccc1)Nc1nc(-c2cccnc2)nc2ccccc12: < 50 nM
- O=C(O)[C@H](CCN(CCCCc1ccc2c(n1)NCCC2)CC(F)F)Nc1ncnc2[nH]ncc12: 250 to 1000 nM
- Cc1nc(N[C@@H](CCN(CCCCc2ccc3c(n2)NCCC3)CCOc2ccc(F)cc2)C(=O)O)c2ccc(F)cc2n1: < 50 nM
- O=C(O)[C@H](CCN(CCCF)CCCCc1ccc2c(n1)NCCC2)Nc1ncnc2ccccc12: < 50 nM
- CO[C@H](C)CN(CCCCc1ccc2c(n1)NCCC2)CC[C@H](Nc1ncc(F)cn1)C(=O)O: < 50 nM
- N#Cc1cnc(N[C@@H](CCN(CCCCc2ccc3c(n2)NCCC3)CCOc2ccccc2)C(=O)O)nc1: < 50 nM
- O=C(O)[C@H](CCN(CCCCc1ccc2c(n1)NCCC2)CCOc1ccccn1)Nc1ncnc2ccccc12: < 50 nM
- CO[C@H](C)CN(CCCCc1ccc2c(n1)NCCC2)CC[C@H](Nc1ncc(C#N)cn1)C(=O)O: 250 to 1000 nM
- CO[C@H](C)CN(CCCCc1ccc2c(n1)NCCC2)CC[C@H](Nc1ncc(Br)cn1)C(=O)O: 50 to 250 nM
- O=C(O)[C@H](CCN(CCCCc1ccc2c(n1)NCCC2)CC(F)F)Nc1cc(-c2ccccc2)ncn1: > 1000 nM
- COCCN(CCCCc1ccc2c(n1)NCCC2)CC[C@H](Nc1cc(C)nc(C(F)(F)F)n1)C(=O)O: < 50 nM

* * *

target: recombinant human integrin αvβ6 (Homo sapiens (Human), UniProt P06756+P18564); assay: Solid phase integrin αvβ6 binding assay; conditions: IC50 presented in four ranges; read-out: αvβ6 Inhibition IC50 (nM) - range
// reported IC50 for each item listed
observed-property: IC50

- O=C(O)[C@H](CCN(CCCCc1ccc2c(n1)NCCC2)CC1CCO1)Nc1ncnc2ccccc12 (stereo partly shown) [compound 129]: < 50 nM
- O=C(O)[C@H](CCN(CCCCc1ccc2c(n1)NCCC2)CC(F)F)Nc1ncncc1-c1ccccc1 [compound 119]: > 1000 nM
- Cc1ccc2c(N[C@@H](CCN(CCCCc3ccc4c(n3)NCCC4)CCOc3ccc(C)nc3)C(=O)O)nc(C)nc2c1 [compound 56]: < 50 nM
- COC[C@@H](F)CN(CCCCc1ccc2c(n1)NCCC2)CC[C@H](Nc1nc(-c2cccnc2)nc2ccccc12)C(=O)O [compound 109]: < 50 nM
- N#Cc1cnc(N[C@@H](CCN(CCCCc2ccc3c(n2)NCCC3)CC(F)F)C(=O)O)nc1 [compound 118]: > 1000 nM
- CN(C)C(=O)CN(CCCCc1ccc2c(n1)NCCC2)CC[C@H](Nc1ccnc(C(F)(F)F)n1)C(=O)O [compound 145]: < 50 nM
- CO[C@H](C)CN(CCCCc1ccc2c(n1)NCCC2)CC[C@H](Nc1ccnc(-c2ccccc2)n1)C(=O)O [compound 73]: < 50 nM

* * *

experiment: Phase 2a trial in IPF: pharmacokinetics; format: in vivo, human; conditions: human, in vivo; IPF participants
observed-property: fraction unbound

• COCCN(CCCCc1ccc2c(n1)NCCC2)CC[C@H](Nc1ncnc2ccccc12)C(=O)O = 0.003 to 0.005

* * *

target: recombinant human integrin αvβ6 (Homo sapiens (Human), UniProt P06756+P18564); experiment: Solid phase integrin αvβ6 binding assay; conditions: IC50 presented in four ranges; read-out: αvβ6 Inhibition IC50 (nM) - range
observed-property: IC50

• CO[C@H](C)CN(CCCCc1ccc2c(n1)NCCC2)CC[C@H](Nc1ccncn1)C(=O)O = 250 to 1000 nM
• CC(=O)NCCN(CCCCc1ccc2c(n1)NCCC2)CC[C@H](Nc1ncnc2ccccc12)C(=O)O = < 50 nM
• CO[C@@H](C)CN(CCCCc1ccc2c(n1)NCCC2)CC[C@H](Nc1ncnc2ccccc12)C(=O)O = < 50 nM
• Cn1ncc2c(N[C@@H](CCN(CCCCc3ccc4c(n3)NCCC4)CCOc3ccc(F)cc3)C(=O)O)ncnc21 = < 50 nM
• CO[C@H](C)CN(CCCCc1ccc2c(n1)NCCC2)CC[C@H](Nc1ncncc1-c1ccccc1)C(=O)O = < 50 nM
• CO[C@H](C)CN(CCCCc1ccc2c(n1)NCCC2)CC[C@H](Nc1ncc(C(F)(F)F)cn1)C(=O)O = 250 to 1000 nM
• CO[C@H](C)CN(CCCCc1ccc2c(n1)NCCC2)CC[C@H](Nc1ncc(C2CC2)cn1)C(=O)O = < 50 nM
• O=C(O)[C@H](CCN(CCCCc1ccc2c(n1)NCCC2)CCC(F)F)Nc1ncc(Br)cn1 = 50 to 250 nM
• O=C(O)[C@H](CCN(CCCCc1ccc2c(n1)NCCC2)C1CC1)Nc1ccnc(C(F)(F)F)n1 = 50 to 250 nM
• O=C(O)[C@H](CCN(CCCCc1ccc2c(n1)NCCC2)C1CC1)Nc1ncnc2[nH]ncc12 = 50 to 250 nM
• CN(C)C(=O)CN(CCCCc1ccc2c(n1)NCCC2)CC[C@H](Nc1ncnc2c1cnn2C)C(=O)O = < 50 nM
• O=C(O)[C@H](CCN(CCCCc1ccc2c(n1)NCCC2)CCOc1ccc(F)cc1)Nc1ncc(Br)cn1 = 50 to 250 nM
• CS(=O)(=O)CCN(CCCCc1ccc2c(n1)NCCC2)CC[C@H](Nc1cc(-n2cccn2)ncn1)C(=O)O = > 1000 nM
• Cn1ncc2c(N[C@@H](CCN(CCCCc3ccc4c(n3)NCCC4)CCS(C)(=O)=O)C(=O)O)ncnc21 = 50 to 250 nM
• COCCN(CCCCc1ccc2c(n1)NCCC2)CC[C@H](Nc1cc(C(F)F)ncn1)C(=O)O = < 50 nM
